# assay overview: Quantitative High-Throughput drug screen in 47 multiple myeloma cell lines against the NCATS MIPE library collection: KMS20_JCRB cell viability assay (AID 1918973); note: potency is the fitted concentration of half-maximal effect; nearly all actives have a fitted effect of over 45% in size
# particulars: CellTiter-Glo ATP, 48 h; series mostly up to 45.8 µM
Records with an inconclusive call do not appear. Active and inactive are the calls of the source. Calls come from the whole dose curve; as a rule, active = well fitted cell-killing curve with a large enough effect; inconclusive = small, poorly fitted or top-dose-only effect, or effect the other way; inactive = no such curve, though single readings can be large or run the other way.
assay readout: Potency

INSERT INTO results (molecule, assay_readout, test_value) VALUES
  ('CNC(=O)c1nn(C)c2c1C(C)(C)Cc1cnc(Nc3ccc(N4CCN(C)CC4)cc3)nc1-2', 'Potency', '2960 nM (active)'),
  ('CC[C@@H]1C(=O)N(C)c2cnc(Nc3ccc(C(=O)NC4CCC(N5CCN(CC6CC6)CC5)CC4)cc3OC)nc2N1C(C)C (stereo not given in full)', 'Potency', '4180 nM (active)'),
  ('Cn1c(=O)n(-c2ccc(C(C)(C)C#N)cc2)c2c3cc(-c4cnc5ccccc5c4)ccc3ncc21', 'Potency', '372 nM (active)'),
  ('CNC(=O)c1cc(Oc2ccc(NC(=O)Nc3cc(C(C)(C)C)nn3-c3ccc4ncccc4c3)c(F)c2)ccn1', 'Potency', '5900 nM (active)'),
  ('CC(C)=CCCC(C)=CCCC(C)=CCSc1ccccc1C(=O)O', 'Potency', '5260 nM (active)'),
  ('C[C@@]12O[C@@H](C[C@]1(O)CO)n1c3ccccc3c3c4c(c5c6ccccc6n2c5c31)CNC4=O', 'Potency', '148 nM (active)'),
  ('CC[C@@]1(O)C(=O)OCc2c1cc1n(c2=O)Cc2cc3cc(O)ccc3nc2-1', 'Potency', '235 nM (active)'),
  ('Cc1c(CN2CCN(S(C)(=O)=O)CC2)sc2c(N3CCOCC3)nc(-c3cnc(N)nc3)nc12', 'Potency', '37.2 nM (active)'),
  ('O=C(NCCCNc1nc(Nc2cccc(NC(=O)N3CCCC3)c2)ncc1I)c1cccs1', 'Potency', '3320 nM (active)'),
  ('COC(=O)[C@]12CCC(C)(C)C[C@@H]1[C@@H]1C(=O)C=C3[C@@]4(C)C=C(C#N)C(=O)C(C)(C)[C@@H]4CC[C@@]3(C)[C@]1(C)CC2', 'Potency', '296 nM (active)'),
  ('CCS(=O)(=O)c1cccc(-c2cc(C(=O)NC3CCN(C)CC3)c(C)c3[nH]c4ncc(C)cc4c23)c1', 'Potency', '1320 nM (active)'),
  ('COc1cccc2c(NCc3ccccc3)nc(-n3c(N)nc4ccccc43)nc12', 'Potency', '2960 nM (active)'),
  ('COc1cc2c(Oc3ccc(NC(=O)C4(C(=O)Nc5ccc(F)cc5)CC4)cc3F)ccnc2cc1OCCCN1CCOCC1', 'Potency', '1870 nM (active)'),
  ('CC1=C(CO)C(=O)O[C@@H]([C@@H](C)[C@H]2CC[C@H]3[C@@H]4C[C@H]5O[C@]56[C@@H](O)C=CC(=O)[C@]6(C)[C@@H]4CC[C@]23C)C1', 'Potency', '148 nM (active)'),
  ('Cn1cncc1[C@@](N)(c1ccc(Cl)cc1)c1ccc2c(c1)c(-c1cccc(Cl)c1)cc(=O)n2C', 'Potency', '11800 nM (active)'),
  ('Cc1nc(N)ncc1-c1nc(N2CCOCC2)c2sc(C(C)(C)O)cc2n1', 'Potency', '1320 nM (active)'),
  ('Cc1ccc(C(N)=O)cc1Nc1nccc(-c2cn(C(C)C)c3cnccc23)n1', 'Potency', '4180 nM (active)'),
  ('COc1cc2c(Oc3ccc4[nH]c(C)cc4c3F)ncnc2cc1OCCCN1CCCC1', 'Potency', '2960 nM (active)'),
  ('NC(=O)Nc1cc(-c2cccc(F)c2)sc1C(=O)N[C@H]1CCCNC1', 'Potency', '662 nM (active)'),
  ('COc1cc(Nc2ncc(F)c(Nc3ccc4c(n3)N(COP(=O)(O)O)C(=O)C(C)(C)O4)n2)cc(OC)c1OC', 'Potency', '1660 nM (active)');

* * *

# assay overview: Quantitative High-Throughput drug screen in 47 multiple myeloma cell lines against the NCATS MIPE library collection: KMS26_JCRB cell viability assay (AID 1918975); note: nearly all actives have a fitted effect of over 45% in size
# particulars: KMS26 myeloma cells viability, CellTiter-Glo ATP, 48 h; series mostly up to 45.8 µM
Records with an inconclusive call do not appear. Calls of active or inactive are those of the source. Calls follow the shape of the dose curve; as a rule, active = well fitted cell-killing curve with a large enough effect; inconclusive = small, poorly fitted or top-dose-only effect, or effect the other way; inactive = no such curve, though single readings can be large or run the other way.
Possible outcomes: active, inactive

INSERT INTO assay_data (compound, group_label) VALUES
  ('C#Cc1cccc(Nc2ncnc3cc(OC)c(OCCCCCCC(=O)NO)cc23)c1', 'active'),
  ('O=C(Nc1cn[nH]c1-c1nc2ccc(CN3CCOCC3)cc2[nH]1)NC1CC1', 'active'),
  ('CN1CCN(Cc2ccc(NC(=O)Nc3ccc(Oc4cc(NC(=O)C5CC5)ncn4)cc3)cc2C(F)(F)F)CC1', 'active'),
  ('CC(=O)Nc1sc2c(c1-c1nc3ccccc3s1)CNC2', 'active'),
  ('CC1(C)CC(=O)c2c(C(F)(F)F)nn(-c3ccc(C(N)=O)c(NC4CCC(OC(=O)CN)CC4)c3)c2C1 (stereo not given)', 'active'),
  ('COc1cc(=C2C=c3ccccc3=N2)[nH]c1=Cc1[nH]c(C)cc1C', 'active'),
  ('O=C(O)[C@H](Cc1c[nH]c2ccccc12)N1C(=O)c2ccccc2C1=O', 'inactive'),
  ('CC(NCc1ccc2c(c1)nc(NC(=O)c1ccc(-c3cn[nH]c3)s1)n2CC(C)(C)O)C(C)(C)C (stereo not given)', 'active'),
  ('Nc1ncnc2c1c(-c1cnc3[nH]ccc3c1)nn2C1CCCC1', 'active'),
  ('O=C(c1cncc(Br)c1)N1CCC(N2CCCC2)CC1', 'inactive');

* * *

# assay overview: qHTS of pediatric cancer cell lines to identify multiple opportunities for drug repurposing: Primary screen for U-2 OS cells (AID 1347096); note: nearly all actives have a fitted effect of over 50% in size
# particulars: U-2 OS viability, CellTiter-Glo luminescence, 48 h; series mostly up to 46 µM
Inconclusive results are not listed. Activity calls are given as the source filed them. Calls come from the whole dose curve; as a rule, active = well fitted cell-killing curve with a large enough effect; inconclusive = small, poorly fitted or top-dose-only effect; inactive = flat fitted curve, though single readings scatter.
Classes used: t (active), f (inactive)

INSERT INTO results (compound, group_label) VALUES
  ('O=C(Nc1cn[nH]c1-c1nc2ccc(CN3CCOCC3)cc2[nH]1)NC1CC1', 't'),
  ('CN(C)CC(C)(C)CNc1nn2c(-c3ccccc3)nnc2cc1C1CCC1', 'f'),
  ('O=C(O)C1(Cc2cccc(Nc3nccs3)n2)CCC(Oc2cccc(Cl)c2F)CC1 (stereo not given)', 'f'),
  ('c1cc(-c2cnn3cc(-c4ccc(OCCN5CCCCC5)cc4)cnc23)ccn1', 'f'),
  ('C=CC(=O)Nc1cccc(Oc2nc(Nc3ccc(N4CCN(C)CC4)cc3)ncc2Cl)c1', 't'),
  ('COc1cccc(Nc2c(C(N)=O)cnc3c(C)cc(S(=O)(=O)c4cccc(C(=O)N(C)C)c4)cc23)c1', 'f'),
  ('CNC(=O)c1c(F)cccc1Nc1nc(Nc2cc3c(cc2OC)CCN3C(=O)CN(C)C)nc2[nH]ccc12', 'f'),
  ('CC[C@H]1CN2CCc3cc(OC)c(OC)cc3[C@H]2C[C@@H]1C[C@@H]1NCCc2cc(OC)c(OC)cc21', 't'),
  ('COc1cccc2c(NCc3ccccc3)nc(-n3c(N)nc4ccccc43)nc12', 't'),
  ('NC(=O)c1cccc2cn(-c3ccc([C@@H]4CCCNC4)cc3)nc12', 'f'),
  ('O=C(CCCCCCC(=O)Nc1ccc([C@H]2O[C@@H](CSc3nc(-c4ccccc4)c(-c4ccccc4)o3)C[C@@H](c3ccc(CO)cc3)O2)cc1)NO', 'f'),
  ('O=c1c2ccccc2nc2n1CCc1c-2[nH]c2ccccc12', 'f'),
  ('CC(=O)OCCN1C(=O)c2c(C)nc3ccc(S(=O)(=O)N4CCOCC4)cc3c2C1=O', 'f'),
  ('CN(C)CCCN=c1c2ccccc2n(C)c2[nH]c(=O)n(C)c(=O)c12', 'f'),
  ('CC(C)(C)NC(=O)[C@H]1CN(Cc2cccnc2)CCN1C[C@@H](O)C[C@@H](Cc1ccccc1)C(=O)N[C@H]1c2ccccc2C[C@H]1O', 'f'),
  ('CCN1CCN(Cc2ccc(-c3cc4c(N[C@H](C)c5ccccc5)ncnc4[nH]3)cc2)CC1', 't'),
  ('COCCOc1ccc2c(c1)ncn2-c1ccc2cccc(N3CCC(N)CC3)c2n1', 't'),
  ('CCN(CC)CCNC(=O)c1ccc2nc(-c3ccccc3)c(-c3ccc(CN4CCC(n5c(=O)[nH]c6ccccc65)CC4)cc3)nc2c1', 't'),
  ('CC(C)[C@H](C(=O)Nc1ccc(C(=O)NO)cc1)c1ccccc1', 't'),
  ('CN1CC[C@@H](c2c(O)cc(O)c3c(=O)cc(-c4ccccc4Cl)oc23)[C@@H](O)C1', 't'),
  ('CC(C)(C)c1cc(C(C)(C)C)c(NC(=O)c2c[nH]c3ccccc3c2=O)cc1O', 'f'),
  ('Cc1ccc(-c2ncn(-c3ccc(Nc4nccc(-c5cccc(N6CCOCC6)c5)n4)cc3)n2)cn1', 't'),
  ('COC(=O)Nc1ccc(-c2nc(N3CCOCC3)c3cnn(C4CCN(Cc5cccnc5)CC4)c3n2)cc1', 'f'),
  ('CC1(C)CCC(c2ccc(Cl)cc2)=C(CN2CCN(c3ccc(C(=O)NS(=O)(=O)c4ccc(N[C@H](CCN5CCOCC5)CSc5ccccc5)c(S(=O)(=O)C(F)(F)F)c4)cc3)CC2)C1', 't'),
  ('C#Cc1cccc(Nc2ncnc3cc(OC)c(OCCCCCCC(=O)NO)cc23)c1', 't'),
  ('COC(=O)C1=C(C)NC(C)=C(C(=O)OCCN2CCN(C(c3ccccc3)c3ccccc3)CC2)C1c1cccc([N+](=O)[O-])c1 (stereo not given)', 'f'),
  ('CCC[C@H](NC(=O)C(C#N)=Cc1cccc(Br)n1)c1ccccc1', 'f'),
  ('Cn1c(CNc2ccc(C(=N)N)cc2)nc2cc(C(=O)N(CCC(=O)O)c3ccccn3)ccc21', 'f'),
  ('C=CC(=O)Nc1cc2c(Nc3ccc(F)c(Cl)c3)ncnc2cc1C#CC(C)(C)N1CCN(C)CC1', 't'),
  ('CCCCc1nc2cc(C=CC(=O)NO)ccc2n1CCN(CC)CC', 't'),
  ('Cc1ccc(C(=O)Nc2cccc(C(F)(F)F)c2)cc1-c1ccc2nc(NCCN3CCOCC3)ncc2c1', 'f'),
  ('COc1cc2c(cc1-c1c(C)noc1C)ncc1[nH]c(=O)n([C@H](C)c3ccccn3)c12', 't'),
  ('COC(=O)Nc1nc2ccc(C(=O)c3ccc(F)cc3)cc2[nH]1', 'f'),
  ('C=CCn1c(=O)c2cnc(Nc3ccc(N4CCN(C)CC4)cc3)nc2n1-c1cccc(C(C)(C)O)n1', 't'),
  ('CC(=O)OCC(=O)[C@@]1(O)[C@H](C)C[C@H]2[C@@H]3C=C(C)C4=Cc5c(cnn5-c5ccccc5)C[C@]4(C)[C@@H]3[C@@H](O)C[C@@]21C', 't');

Every entry's value here was drawn from PubChem BioAssay (NCATS).
